Listing: melting point of selected molecules

Example molecules with recorded melting point:
CCOC(=O)c1c(N)c2cccnc2n(C)c1=O | 203 to 206 °C
COC1CN(C(=O)c2cc(-c3cccc(Cl)c3)c(=O)[nH]c2-c2c(Cl)cccc2C#N)C1 | 239 to 243 °C
Cn1c(=O)[nH]c(=O)c2cccnc21 | 277 to 285 °C
COc1ccn2nc(-c3ccccc3)c(-c3ccc(=O)n(C(C)C)n3)c2c1Br | 205 to 206 °C
COc1cc(Nc2c(C#N)cnc3cc(-c4ccc(CN5CCCCC5)s4)ccc23)c(Cl)cc1Cl | 155 to 160 °C
O=C[C@H]1CC[C@H](c2ccc(F)cc2)CC1 | < 30 °C
CC(C)(C)c1ccc([C@@H]2C[C@H]3C=C(c4c[nH]c(-c5ccc(F)cc5)c4-c4ccncc4)CCN3C2)cc1 | 226 to 228 °C
O=CNCc1cccc(-c2ccc(Br)cc2)n1 | 115 to 119 °C
CC(C)CS(=O)(=O)N1C[C@@H](C)C[C@H](Nc2ncccc2-c2cnc3[nH]ccc3n2)C1 | 215 to 218 °C

Reported melting point for Nc1ccc(N=Nc2ccc([N+](=O)[O-])c(C(F)(F)F)c2)cc1 : what is it?
136 °C

* * *

Listing: melting point of selected molecules

Example molecules with recorded melting point:
COC(=O)C(=O)c1cn(C)c2cc(-c3ccc(C(F)(F)F)cc3)ccc12 | 199 to 200 °C
C=CCc1ccc2oc(C(=O)c3ccc(OC)cc3)c(C)c2c1O | 48 to 50 °C
CC1(O)ON=C(c2ccc(Br)cc2)C1c1ccccc1 (stereo not given) | 153 °C

Reported melting point for COc1ccc(-c2nc3ncn(C)c(=S)n3n2)cc1 : what is it?
> 300 °C

Reported melting point for N#CCCNC(=O)c1cccc(-c2cccc3nn(Cc4ccccc4)cc23)c1 : what is it?
143 to 144 °C

Reported melting point for O=C(NCc1ccn(C2=CC3=C(CC2)CCc2[nH]c(=O)c(=O)n(O)c23)c1)Nc1ccc(C(=O)O)cc1 : what is it?
> 300 °C

Reported melting point for CC(C)C(=O)Nc1nc2c(ncn2C2OC(CO)C(O)C2OC2CCCO2)c(=O)[nH]1 (stereo not given) : what is it?
178 to 180 °C

Reported melting point for CC(C)Oc1ccc(Cc2nn(-c3ccccc3Cl)c(=O)o2)cc1 : what is it?
54 °C

* * *

outcomeMeasure: melting point

Example molecules with recorded melting point:
COC(=O)C1=Cc2cc(-c3ccc(C(C)(C)C)cc3)ccc2S(=O)(=O)CC1 | 170 to 172 °C
COc1ccc(CNc2cc(OCc3ccccn3)ccc2C(=O)c2cc(OC)c(OC)c(OC)c2)cc1Cl | 142 to 144 °C
O=C(Nc1ccccn1)C(CC1CCCC1)c1ccc(C(F)(F)F)c(F)c1 (stereo not drawn) | 40 to 44 °C
Cc1nn(C)c(C)c1NC1=NCCO1 | 131 to 132 °C
Nc1ccn(-c2cccc(Cl)c2)n1 | 106 to 107 °C

Reported melting point for CC(C)(C)c1cc(-c2nn(CCC(=O)O)c3ncccc23)cc(C(C)(C)C)c1O : what is it?
183 to 186 °C

Reported melting point for CC(=O)Oc1ccc2c(c1)C(=O)NC(C(Cl)(Cl)Cl)O2 (stereo not drawn) : what is it?
201 to 203 °C

Reported melting point for CNC(=O)c1cc(N2CCOCC2)cc([N+](=O)[O-])c1 : what is it?
204 to 207 °C

Reported melting point for O=C(O)c1cccc(-c2cc(-c3ccc(F)cc3)[nH]n2)c1 : what is it?
270 to 272 °C

* * *

Listing: melting point of selected compounds

Example compounds with recorded melting point:
CCN1C=C(C(=O)OC)C(=O)CC1c1ccc(N(C)C)cc1 (centres undefined) | 85 to 87 °C
Clc1cc(Nc2nnc(-c3ccc4nonc4c3)s2)ccc1Br | 326 to 327 °C
CC1Cc2cc(S(=O)(=O)N3CCN(c4cccc(Cl)c4)CC3)ccc2N1C(=O)CCC(=O)O (centres undefined) | 210 °C
CC(C)Oc1ccc2c(c1)N(C)C(=O)N(c1ccc(C(F)(F)F)cc1)S2(=O)=O | 158 to 160 °C
Fc1cccc(F)c1C1=NC(c2ccc(C#Cc3ccc(Cl)cc3)cc2)CO1 (centres undefined) | 155 to 156 °C
Nc1sc2c(c1C(=O)c1ccco1)CCN(Cc1ccccc1)C2 | 112 to 117 °C
Cc1ccnc2c(Oc3ccc([N+](=O)[O-])cc3)cccc12 | 148 to 149 °C
NC(=O)Cc1ccc2ccn(C3CCN(CCc4ccc(F)cc4)CC3)c2c1 | 112 to 113 °C

Reported melting point for Cc1nc2n(c(=O)c1CCN1CCN(c3noc4c(C)cccc34)CC1)CCCS2 : what is it?
170 °C

* * *

outcomeMeasure: melting point

Cc1cc(Oc2ccc(C(F)(F)F)cc2[N+](=O)[O-])nn1C(=O)OC(C)(C)C | 68 to 70 °C
CCCOC(=O)c1ccc(C#CC2(O)CN3CCC2CC3)cc1O (stereo not given) | 173 to 175 °C
O=C(O)Cc1cc2c(s1)-c1ccccc1OC2C1=CCCC=C1 (stereo not given) | 105 to 110 °C
O=C(O)/C=C/C=C(c1cccc(F)c1)c1cccc(F)c1 | 142 to 143 °C
O=C([C@H]1CN(Cc2ccccc2)CCN1C(=O)NC1CCCCC1)N(CCCn1ccnc1)Cc1ccccc1 | 89.1 °C
COc1ccc2cc3c(=O)c(C#N)c[nH]c3cc2c1 | > 265 °C
CC(C)OCCNC(=O)c1ccn2nc(-c3ccccc3)c(-c3ccc(=O)n(C(C)C)n3)c2c1 | 124 to 125 °C
Cc1ccccc1N(CC(=O)OC(C)(C)C)C(=O)CN1C(=O)c2ccccc2C1=O | 140 °C

Reported melting point for COc1cc(OC)nc(Oc2ccc3c(c2C(=O)O)OCO3)n1 : what is it?
198 to 201 °C

Reported melting point for COc1ccc(C2=NN(C3CCSCC3)C(=O)[C@H]3CC=CC[C@@H]23)cc1OC (relative stereo) : what is it?
140 to 141 °C

* * *

outcomeMeasure: melting point

Example molecules with recorded melting point:
CCOC(=O)CC(=O)N1NCCCC1C(=O)OC(C)(C)C (stereo unspecified) | 86 to 87 °C
CCOC(=O)c1ccc(/C=C/c2c(C)cc3c(c2OC)C(C)(C)CCC3(C)C)cc1 | 123 °C
COc1c([N+](=O)[O-])cc(C#N)c(F)c1O | 112 to 113 °C
CCC1(CCCCN2CCN(c3ccccn3)CC2)C(=O)Nc2ccc(C)cc21 (stereo unspecified) | 168 to 170 °C

Reported melting point for COc1c(F)cc(-c2cncc(OC3SCC(OC(C)=O)C(OC(C)=O)C3OC(C)=O)c2)cc1F (stereo unspecified) : what is it?
203 °C

Reported melting point for CCOC(=O)CCCCCNS(=O)(=O)c1ccc(Cl)cc1 : what is it?
102 to 105 °C

* * *

Listing: melting point of selected compounds
Expressed in °C, but write only the number.

Reported melting point for COC(=O)CCOc1ccc(C#N)cc1 : what is it?
51

Reported melting point for Cc1[nH]c2ccc(Br)cc2c1-c1ccncc1 : what is it?
248

Reported melting point for COc1cc(O)c(C(=O)C=Cc2ccc(OCc3ccccc3)c(OC)c2)c(OC)c1 : what is it?
131

* * *

Listing: melting point of selected compounds

Example compounds with recorded melting point:
CN1CCc2cc(C#CCO)cc3c(=O)c(C(=O)NCc4ccc(Cl)cc4)cn1c23 | 165 to 167 °C
Cn1c(-c2cccc3[nH]c(-c4ccncc4)cc23)n[nH]c1=O | > 300 °C
COc1ccc(C(C)CC(=O)N2C(=O)OCC2C(C)C)cc1 (stereo not given) | 62 to 63.5 °C
O=C(N[C@H](Cc1ccc(CC(F)(F)C(F)(F)F)cc1)[C@@H](O)c1cccc(Cl)c1)c1cccc2c1C=CCCC2 (racemic) | 176 to 177 °C

# evaluate next
Reported melting point for O=[N+]([O-])c1ccc(-c2nc(CO)no2)cc1 : what is it?
155 to 156 °C

* * *

Listing: melting point of selected compounds
Expressed in °C, but write only the number.

COc1ccc(N2CCN(C3CCNCC3)C2=O)cc1 | 140
CN(C)CC(=O)Nc1ccc(Cl)c(C(=O)Nc2cccc3c4c(oc23)CCCC4)c1Cl | 207
CCOC(=O)C(C)(C)NC(=O)c1ccc(S(=O)(=O)N2C(=O)C(NC)(c3ccccc3Cl)c3cc(Cl)ccc32)c(OC)c1 (stereo not given) | 141

Reported melting point for N#Cc1ccc(CBr)c(C#N)c1 : what is it?
106

* * *

Listing: melting point of selected molecules

Example molecules with recorded melting point:
COC(=O)c1ccc(C#CC(=O)c2ccc3c(c2)C(C)(C)CCC3(C)C)cc1 | 113 to 114 °C
CCSC(C)(C)C(=O)CC(=O)Nc1cc(NC(=O)CCCOc2ccc(C(C)(C)CC)cc2C(C)(C)CC)ccc1Cl | 121 to 122 °C
COc1cc(N)c(Cl)cc1C(=O)NN1CCN(Cc2cccs2)CC1 | 225 to 226 °C
COC(=O)c1cc2c(OC)ccc(OC)c2[nH]1 | 145 to 146 °C
Cc1oc(-c2ccccc2)nc1COc1ccc(CCl)cn1 | 86 to 87 °C
CC(C)N1Cc2cc(O)ccc2N(CCN2CC=C(c3c[nH]c4cc(F)ccc34)CC2)S1(=O)=O | 80 to 82 °C
O=C1N(Cc2ccc(N3CCOCC3)cn2)c2ccccc2C12COc1cc3c(cc12)OCCO3 (stereo not given) | 204 to 206 °C
CS(=O)(=O)c1ccc(Cl)cc1Cl | 71 °C
Cc1ccc([C@@H]2c3c(C)c(N4CCC(c5ccc(F)cc5)CC4)c(C)c(C)c3OC2(C)C)cc1 | 141 to 144 °C
CCCc1nc(S)nn1-c1ccccc1 | 142 to 143 °C

# evaluate next
Reported melting point for COCc1cc(OCc2ccccc2)c2nc(C)n(C)c2c1 : what is it?
113 °C
